Taken from PubChem BioAssay (NCI).

- Test system: T-47D breast
- assay: NCI-60 one-dose screen, 48 h
- experimental.conditions: 10 µM unless noted
About 83,000 compounds went through this panel and 20% of them were active in at least one assay; those are over-represented in the sample as a whole. Active and inactive are the calls of the source. The calls were made as follows: active = growth percent below 10; inactive = the rest.
Hi! Could you answer with just one of these? t for active, f for inactive

O=C(CC1(O)C(=O)Nc2ccc(Br)cc21)c1ccc(C(=O)NCC2CCC3(CC2)OOC2(CCCCC2)OO3)cc1 (configuration not stated) : f

Assay outcome for `Clc1cccc(Cl)c1Cl` : what was it?
f

Assay outcome for `CC(=O)OCC1O[C@@H]([S-])C(OC(C)=O)[C@H](OC(C)=O)[C@@H]1OC(C)=O.[Au+].c1ccc(CN2[CH-]N(Cc3ccccc3)C(c3ccccc3)=C2c2ccccc2)cc1` : what was it?
t

Assay outcome for `ClC1=C(Cl)C(Cl)(C2(Cl)C(Cl)=C(Cl)C(Cl)=C2Cl)C(Cl)=C1Cl` : what was it?
t

Assay outcome for `Fc1ccc2c(c1)c(-c1nc(-c3c[nH]c4ncccc34)cs1)cn2CCN1CCOCC1` : what was it?
t

Assay outcome for `COC(=O)[C@@H](C)C[C@H](Cc1ccccc1)NC(=O)c1csc([C@@H](C[C@H](C(C)C)N(C)C(=O)[C@@H](NC(=O)[C@H]2CCCCN2C)C2CCCCC2)OC(C)=O)n1` : what was it?
f

Assay outcome for `COC(=O)[C@@H](C)C[C@H](Cc1ccccc1)NC(=O)c1csc([C@@H](C[C@H](C(C)C)N(C)C(=O)[C@H](C)NC(=O)[C@H]2CCCN2C)OC(C)=O)n1` : what was it?
f

Assay outcome for `O=C(O)c1ccc([S-])cc1.[Au+].c1ccc(CN2[CH-]N(Cc3ccccc3)C(c3ccccc3)=C2c2ccccc2)cc1` : what was it?
t

Assay outcome for `C/C(=C\c1ccn(-c2ccc(N)c(F)c2)n1)[C@@H]1C[C@@H]2O[C@]2(C)CCC[C@H](C)[C@H](O)[C@@H](C)C(=O)C(C)(C)[C@@H](O)CC(=O)O1` : what was it?
f

Assay outcome for CCC1(C)CC(CCNCc2ccccc2O)(c2ccc(C)cc2)CCO1 (configuration not stated) : what was it?
f

Assay outcome for `OCCCCCNC1CCCCC1` : what was it?
f

Assay outcome for `CCOC(=O)[C@@H](C)C[C@H](Cc1ccccc1)NC(=O)c1csc([C@@H](C[C@H](C(C)C)N(C)C(=O)[C@@H](NC(=O)[C@H]2CCCCN2C)C(C)(C)C)OC(C)=O)n1` : what was it?
f

Assay outcome for `O=c1[nH]c2ccc([N+](=O)[O-])cc2c(=O)o1` : what was it?
f

Assay outcome for `O=c1[nH]cc(N(CCCl)CCCl)c(=O)[nH]1` : what was it?
f

Assay outcome for `CN1C(=O)N[C@H]2[C@@H]3NC(=O)c4ccc(Br)n4[C@@H]3C[C@]21O` : what was it?
t

Assay outcome for `Cc1ccc(S(=O)(=O)C(Cl)(Cl)Cl)cc1` : what was it?
f

Assay outcome for `C=CC[PH+](c1ccccc1)c1ccccc1.C=CC[PH+](c1ccccc1)c1ccccc1.[Cl][Pt][Cl]` : what was it?
t

----------
- System: CAKI-1 renal
- assay: NCI-60 one-dose screen, 48 h (100 = growth as untreated, 0 = no growth, -100 = all killed)
- experimental.conditions: 10 µM unless noted
The panel holds about 83,000 compounds, 20% with a hit somewhere; the sample as a whole holds those more often. Active and inactive are the calls of the source. How the source made its calls: active means growth percent below 10; inactive means the rest.
Entries and their measured growth follow.

NC(N)=N/N=C\c1c[nH]c2ccc(Br)cc12 : 101% (inactive)
C[S+]1C=Cc2ccccc2C1c1ccc(Cl)cc1 (stereo not given) : 72.7% (inactive)

Provide the reported growth (system: CAKI-1 renal) for `COc1ccc(/C=C\c2cc(OC)c(OC)c(OC)c2)cc1NC(=O)/C=C/c1cc(OC)c(OC)c(OC)c1`
31.5% (inactive)

Provide the reported growth (system: CAKI-1 renal) for `COC(=O)N[C@H]1CCc2c(Br)c(OC)c(OC)c(OC)c2-c2ccc(SC)c(=O)cc21`
13.7% (inactive)

----------
- System: NCI-H322M lung
- assay: NCI-60 one-dose screen, 48 h (100 = growth as untreated, 0 = no growth, -100 = all killed)
- experimental.conditions: 10 µM unless noted
Compounds without any hit were thinned out: in the full panel of roughly 83,000, 20% have a hit.
Label 1 (yes) when growth is at or above 90%; anything below gets 0 (no).

Example entries begin here.
C=CC[Se]C(=O)c1ccccc1OC(C)=O : 0 (no)
C=CC1=C[C@@H]2[C@@H]3O[C@]4(CC[C@H](O4)[C@@H](C)C[C@@H](O)C3=O)C[C@H](O)C3=NCC[C@@]32CC1 : 0 (no)
COc1ccc(S(=O)(=O)N(Cc2ccc3c(c2)C=CC(C)(C)O3)c2ccccc2)cc1OC : 1 (yes)
C#Cc1ccc2c(c1)C(c1ccccc1)=NCC(=O)N2C : 0 (no)

Check if growth >= 90% (inclusive). Item: `C[C@]12CCc3nc(Nc4ccccc4F)sc3C1=CC[C@@H]1[C@@H]2CC[C@]2(C)C(=O)CC[C@@H]12`
0 (no)

Check if growth >= 90% (inclusive). Item: `CC(=O)O[C@H](C[C@H](C(C)C)N(C)C(=O)[C@@H](NC(=O)[C@H]1CCCCN1C)C(C)C)c1nc(C(=O)N[C@@H](Cc2ccccc2)C[C@H](C)C(=O)O)c(C)s1`
0 (no)

Check if growth >= 90% (inclusive). Item: `Clc1cccc(NCOOC2(OOCNc3cccc(Cl)c3)CCCCCC2)c1`
1 (yes)

Check if growth >= 90% (inclusive). Item: `COP(=S)(N1CC1)N1CC1`
1 (yes)

----------
- System: HOP-92 NSCLC
- assay: NCI-60 one-dose screen, 48 h
- experimental.conditions: 10 µM unless noted
This is part of a sample that, as a whole, favours compounds with a hit. Of some 83,000 tested, about 20% had one in any assay. The source made the active and inactive calls. How the source made its calls: active means growth percent below 10; inactive means the rest.
Hi! Could you answer with just one of these? yes (1) (active), no (0) (inactive)

Assay outcome for CN1CC(=O)N(O)C1(C)c1cccnc1 (stereo not drawn) : what was it?
no (0)

----------
Entries and their measured growth follow.
- System: SK-MEL-2 melanoma
- assay: NCI-60 one-dose screen, 48 h (100 = growth as untreated, 0 = no growth, -100 = all killed)
- experimental.conditions: 10 µM unless noted
Compounds without any hit were thinned out: in the full panel of roughly 83,000, 20% have a hit.
Numbers only; they are read as %.

CN(C)C1C(=O)C(C(N)=O)=C(O)C2(O)C(=O)C3=C(O)c4c(O)cccc4C(C)(O)C3CC12.[Cl][Sb]([Cl])[Cl] (configuration not stated) : -7.83
COC(=O)[C@@H](C)C[C@H](Cc1cn(C)c2ccccc12)NC(=O)c1csc([C@@H](C[C@H](C(C)C)N(C)C(=O)[C@@H](NC(=O)[C@H]2CCCCN2C)C(C)C)OC(C)=O)n1 : 39

Fill in growth for record `OCCCCCNC1CCCCC1`
80.7

Fill in growth for record `O=C(Nc1ccc(Br)cc1)c1cc(Br)cc(Br)c1O`
-21.8

Fill in growth for record `COC(=O)[C@@H](C)C[C@H](Cc1ccc(F)cc1)NC(=O)c1csc([C@@H](C[C@H](C(C)C)N(C)C(=O)[C@@H](NC(=O)[C@H]2CCCCN2C)C2CC2)OC(C)=O)n1`
24.4

Fill in growth for record `COC(=O)[C@@H](C)C[C@H](Cc1ccccc1)NC(=O)c1csc([C@@H](C[C@H](C(C)C)N(C)C(=O)[C@@H](NC(=O)[C@H]2CCCCN2C)c2ccc(F)cc2)OC(C)=O)n1`
30.2

Fill in growth for record `CCOC(=O)[C@@H](C)C[C@H](Cc1ccccc1)NC(=O)c1csc([C@@H](C[C@H](C(C)C)N(C)C(=O)CNC(=O)[C@H]2CCCCN2C)OC(C)=O)n1`
28.1

----------
- Test system: HOP-62 NSCLC
- assay: NCI-60 one-dose screen, 48 h (100 = growth as untreated, 0 = no growth, -100 = all killed)
- experimental.conditions: 10 µM unless noted
The panel holds about 83,000 compounds, 20% with a hit somewhere; the sample as a whole holds those more often. Active and inactive are the calls of the source. Rule for the calls: active = growth percent below 10; inactive = the rest.
measurement.label: growth

See these solved cases before continuing.
O=C1OCCC1Br (stereo not drawn) : 105% (inactive)
CC(=O)OC1CCC2C3CCC4=C/C(=N/OC(=O)c5ccc(N(CCCl)CCCl)cc5)CCC4(C)C3CC(C)C12 (stereo not drawn) : 78.6% (inactive)
COc1cc([N+](=O)[O-])c2nc(C)ccc2c1[N+](=O)[O-] : 132% (inactive)
C/C(CC(C)(C)N1CC1)=N\NC(=O)Nc1cccc2ccccc12 : 62.5% (inactive)
[Cl][Hg][n]1c(-c2ccco2)nc2ccccc21 : 115% (inactive)

Fill in growth for record NC(=O)C(Br)c1ccccc1 (stereo not drawn)
103% (inactive)

Fill in growth for record `C=C1C(=O)O[C@H]2[C@H]1CC/C(COC(=O)C(=O)c1cn(Cc3ccccc3)c3ccccc13)=C\CC[C@@]1(C)O[C@@H]21`
2.07% (active)

Fill in growth for record `COc1cc([C@@H]2c3cc4c(cc3[C@H](OC(C)=O)[C@H]3COC(=O)[C@H]23)OCO4)cc(OC)c1OC`
37.8% (inactive)

Fill in growth for record `CCOC(=O)[C@@H](C)C[C@H](Cc1ccccc1)NC(=O)c1csc([C@@H](C[C@H](C(C)C)N(C)C(=O)[C@@H](NC(=O)[C@H]2CCCCN2C)C(C)(C)C)OC(C)=O)n1`
11.8% (inactive)

Fill in growth for record `O=C(c1ccccc1O)c1[nH]c(Cl)c(Cl)c1-n1c(C(=O)c2ccccc2O)cc(Cl)c1Cl`
-9.18% (active)

Fill in growth for record `Cc1ccc(S(=O)(=O)C(Cl)(Cl)Cl)cc1`
90.2% (inactive)

Fill in growth for record `CC(=O)O[C@H]1CC[C@]2(C)[C@H]3CC[C@]4(C)[C@@H](OC(C)=O)CC[C@H]4[C@@H]3[C@@H](C)[C@]2(O)C1`
105% (inactive)

Fill in growth for record `COc1ccc(/C=C\c2cc(OC)c(OC)c(OC)c2)c(NS(=O)(=O)c2ccc(C)cc2)c1O`
80.7% (inactive)

Fill in growth for record `CC1=C(O)[C@@](C)(CCCCC[C@H](C)CCCCc2ccc(O)cc2)OOC1=O`
91.1% (inactive)

Fill in growth for record CC1(C)CN1P(=O)(N1CC1(C)C)N1CC1(C)C (stereo not drawn)
102% (inactive)

Fill in growth for record `COc1ccc(/C=C\c2cc(OC)c(OC)c(OC)c2)c(NS(=O)(=O)c2ccc(Cl)cc2)c1O`
49.8% (inactive)

Fill in growth for record O=[N+]([O-])c1ccc([Se]C2CCCCC2Cl)c([N+](=O)[O-])c1 (stereo not drawn)
7.16% (active)

Fill in growth for record CC1[C@H](C)OC(=O)CC(O)CC(O)CC(O)CCC(O)C(O)C[C@]2(O)CC(O)C(C(=O)O)C(CC(OC3O[C@H](C)[C@@H](O)[C@H](N)[C@@H]3O)/C=C/C=C/C=C/C=C/CC/C=C/C=C/[C@H](C)[C@H]1O)O2 (stereo partly drawn)
105% (inactive)
